Listed below: % bound values for each entry.
# tested_on: T1, human collagen type I, acid soluble, extracted from placenta (Sigma C7774) (human, UniProt P02452 162-1218; P08123 80-1119)
# T1 construct: tissue extract, gelled and dried in wells; also called dried human collagen; h-Collagen
# assay_remarks: dried collagen assay
Bridge positions count the residues as written; N and C are the ends. Square brackets hold non-standard residues; d marks the D form. Primed or numbered codes have the meaning given here. Side chains are listed from the residue outwards. Ends that are not written are not given here. Tyr(3-I) = N[C@@H](Cc1ccc(O)c(I)c1)C(=O)O; Gd^T(3) = GdDTPA attached via thiourea; d1Nal = N[C@H](Cc1cccc2ccccc12)C(=O)O; 2Pal = N[C@@H](Cc1ccccn1)C(=O)O; Gd^T = not defined here; Gd^T″ = GdDTPA-thiourea
Give just the numeric value; % need not be written.

Previously resolved entries follow.
{Gd^T″}-GQWHCTTDFPH[2Pal]YCLYG (disulfide 5-14) [Compound ID 888] | 38
{Gd^T″}-GK([Gly-Gd^T″])WHCYTYFPHHYCLYGK(Gd^T″) (disulfide 5-14 (inferred)) [Compound ID 996] | 76

IN: Sample {Gd^T(3)}-GQWHCTTRFPHH[d1Nal]CLYG (disulfide 5-14; not fully specified (C-terminus)) [Compound ID 904] — what was its % bound?
OUT: 0

IN: Now try {Gd^T}-GQWHCTTDFPHHYCLYG (disulfide 5-14 (inferred); not fully specified (C-terminus); reading uncertain) [Compound ID 851] .
OUT: 50

IN: Now try {Gd^T″}-DWTCSGDEYTWHCN[Tyr(3-I)]E (disulfide 4-13 (inferred); not fully specified (C-terminus)) [Compound ID 831] .
OUT: 50
